In this section we review reported inhibition values for a set of compounds.
Molecular target: Mitogen-activated protein kinase kinase kinase 5 (Homo sapiens) (UniProt Q99683)
Sequence (Q99683 whole entry, looked up): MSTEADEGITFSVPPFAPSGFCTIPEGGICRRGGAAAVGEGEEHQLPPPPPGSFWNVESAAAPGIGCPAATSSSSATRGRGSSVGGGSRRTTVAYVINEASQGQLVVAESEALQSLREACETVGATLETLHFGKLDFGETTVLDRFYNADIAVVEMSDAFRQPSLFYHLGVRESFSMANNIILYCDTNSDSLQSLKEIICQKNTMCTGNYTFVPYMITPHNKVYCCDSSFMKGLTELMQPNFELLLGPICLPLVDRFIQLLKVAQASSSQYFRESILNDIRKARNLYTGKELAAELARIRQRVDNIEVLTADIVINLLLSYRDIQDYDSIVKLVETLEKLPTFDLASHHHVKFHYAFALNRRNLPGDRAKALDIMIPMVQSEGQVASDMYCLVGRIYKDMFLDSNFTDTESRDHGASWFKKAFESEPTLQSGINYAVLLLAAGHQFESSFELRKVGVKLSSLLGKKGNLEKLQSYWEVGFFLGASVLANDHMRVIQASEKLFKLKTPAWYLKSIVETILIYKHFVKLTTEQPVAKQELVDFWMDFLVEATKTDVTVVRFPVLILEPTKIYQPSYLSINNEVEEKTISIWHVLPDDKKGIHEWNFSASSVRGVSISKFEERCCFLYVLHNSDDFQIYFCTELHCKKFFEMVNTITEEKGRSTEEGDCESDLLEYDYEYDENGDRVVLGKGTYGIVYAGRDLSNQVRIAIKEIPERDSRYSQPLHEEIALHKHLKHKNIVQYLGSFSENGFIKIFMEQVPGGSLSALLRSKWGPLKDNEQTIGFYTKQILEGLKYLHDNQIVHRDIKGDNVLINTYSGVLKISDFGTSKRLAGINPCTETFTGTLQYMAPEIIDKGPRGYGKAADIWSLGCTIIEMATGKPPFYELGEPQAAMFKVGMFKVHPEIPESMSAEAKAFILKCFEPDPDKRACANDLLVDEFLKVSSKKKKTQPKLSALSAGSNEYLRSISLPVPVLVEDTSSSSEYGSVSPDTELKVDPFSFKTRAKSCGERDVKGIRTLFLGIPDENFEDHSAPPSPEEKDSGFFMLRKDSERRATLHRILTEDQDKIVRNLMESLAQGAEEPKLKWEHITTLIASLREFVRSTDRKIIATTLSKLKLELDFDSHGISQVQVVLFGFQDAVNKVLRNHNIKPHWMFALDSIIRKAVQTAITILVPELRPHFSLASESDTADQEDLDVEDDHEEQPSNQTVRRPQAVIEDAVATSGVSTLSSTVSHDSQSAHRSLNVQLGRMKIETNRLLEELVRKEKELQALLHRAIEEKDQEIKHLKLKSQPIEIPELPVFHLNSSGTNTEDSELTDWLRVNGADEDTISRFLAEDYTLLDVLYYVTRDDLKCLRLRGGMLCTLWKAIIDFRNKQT
Assay: blockers of MAP3K5 kinase activity – biochemical, AlphaScreen, primary screen (AID 1159602);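 note: 0% = median of compound wells and 100% = no enzyme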
Conditions: AlphaScreen MKK6 phosphorylation by ASK1, luminescence; at 7.44 µM; active compounds read high
Among all 22,000 compounds or so, about 220 (1%) were called active. The sample as a whole holds a higher share of actives than the screen did.
State the answer as a number, implicitly in %.

Some solved entries appear below for comparison.
# Compound, Unit Abbreviation, inhibition
measured = [
    ("CNC(=O)c1ccccc1Nc1ccnc(Nc2ccc(N3CCOCC3)cc2)c1", "%", 8.11),
    ("Cc1ccccc1-c1cscc1Nc1cnn(-c2cccc(C(=O)Nc3ccc(N4CCOCC4)cc3)c2)c1", "%", 37.8),
    ("FC(F)(F)c1cccc(CNc2ncnc3nc(N4CCC(N5CCOCC5)CC4)[nH]c23)c1", "%", -8.59),
]

Incoming: Could you share what inhibition was measured for O=C1CCCN1CCCNc1nccc(NC2CCN(Cc3ccccc3)CC2)n1 , tested on Mitogen-activated protein kinase kinase kinase 5 (Homo sapiens) (UniProt Q99683)?
Outgoing: -6.87

Incoming: Observed inhibition on Mitogen-activated protein kinase kinase kinase 5 (Homo sapiens) (UniProt Q99683) for FC(F)(F)c1cccc(CNc2ncnc3nc(Nc4ccncn4)[nH]c23)c1 , please.
Outgoing: 14.3

Incoming: What value of inhibition on Mitogen-activated protein kinase kinase kinase 5 (Homo sapiens) (UniProt Q99683) does COc1ccc(-c2cc(C(=O)Nc3ccc(N4CCOCC4)cc3)ccn2)cc1 have?
Outgoing: 11.5

Incoming: Could you share what inhibition was measured for FC(F)(F)c1cccc(CNc2nc(Nc3ccc(N4CCOCC4)cc3)nc3c2ncn3-c2ccsc2)c1 , tested on Mitogen-activated protein kinase kinase kinase 5 (Homo sapiens) (UniProt Q99683)?
Outgoing: 41.6

Incoming: Please provide the recorded inhibition for Nc1cccc(-c2cc(Nc3ccccc3)ncn2)c1 , tested on Mitogen-activated protein kinase kinase kinase 5 (Homo sapiens) (UniProt Q99683).
Outgoing: 4.09

Incoming: API: value(readout=inhibition, system=Mitogen-activated protein kinase kinase kinase 5 (Homo sapiens) (UniProt Q99683)) for record O=C(Cc1cccc(Br)c1)Nc1cnn(-c2cccc(C(=O)Nc3ccc(N4CCOCC4)cc3)c2)c1
Outgoing: -2.11

Incoming: Item FC(F)(F)c1cccc(CNc2ncnc3nc(N4CCOCC4)[nH]c23)c1 with Mitogen-activated protein kinase kinase kinase 5 (Homo sapiens) (UniProt Q99683) - inhibition?
Outgoing: -25.3

Incoming: Query the reported inhibition for Mitogen-activated protein kinase kinase kinase 5 (Homo sapiens) (UniProt Q99683); item: Cc1cnc(Nc2ccc(N3CCOCC3)cc2)nc1NCc1cccc(C(F)(F)F)c1
Outgoing: 41.4

Incoming: Request body: readout inhibition, system Mitogen-activated protein kinase kinase kinase 5 (Homo sapiens) (UniProt Q99683), query CNC(=O)c1cc(F)ccc1Nc1cc(Nc2ccc3nc[nH]c3c2)ncc1C(F)(F)F . Return the value.
Outgoing: -2.41

Incoming: I'm curious: which inhibition was measured for COc1ccc(CCNc2ncnc3nc(-c4ccc(C(N)=O)cc4)[nH]c23)cc1 tested on Mitogen-activated protein kinase kinase kinase 5 (Homo sapiens) (UniProt Q99683)?
Outgoing: -0.94

Incoming: Write down the reported inhibition of CCN(CC)c1nc(NCCc2ccc(O)cc2)nc(Nc2cc(OC)c(OC)c(OC)c2)n1 , test system: Mitogen-activated protein kinase kinase kinase 5 (Homo sapiens) (UniProt Q99683).
Outgoing: 4.75

Incoming: What measured inhibition is associated with c1ccc(CNc2nc(Nc3cccnc3)nc3c2ncn3-c2ccccc2)cc1 on Mitogen-activated protein kinase kinase kinase 5 (Homo sapiens) (UniProt Q99683)?
Outgoing: 8.4

Incoming: Recorded inhibition for CCN(CC)C(=O)C1CCCN(c2nc(NCc3cccc(C(F)(F)F)c3)c3cc(OC)c(OC)cc3n2)C1 (stereo not given) with Mitogen-activated protein kinase kinase kinase 5 (Homo sapiens) (UniProt Q99683), please?
Outgoing: 3.43

Incoming: Observed inhibition on Mitogen-activated protein kinase kinase kinase 5 (Homo sapiens) (UniProt Q99683) for FC(F)(F)c1cccc(CNc2nc(N3CCN(c4ccccn4)CC3)nc3c2ncn3-c2ccsc2)c1 , please.
Outgoing: 40.9

Incoming: Short answer please: inhibition, Mitogen-activated protein kinase kinase kinase 5 (Homo sapiens) (UniProt Q99683), entry O=C(Nc1cccc(Cl)c1N1CCC(N2CCCCC2)CC1)c1ccc(Br)o1
Outgoing: 9.68

Incoming: Look up inhibition with Mitogen-activated protein kinase kinase kinase 5 (Homo sapiens) (UniProt Q99683) for this compound: Nc1cccc(-c2ccc(C(=O)NCc3nc4ccccc4[nH]3)s2)c1
Outgoing: 7.11

Numbers sourced from PubChem BioAssay AID1159602.
